# reported herbicidal activity inhibition ratio (%), Setaria viridis; entries follow
System: setaria viridis
Test: Herbicidal activity, pot culture method (primary and secondary screening test)
Assay type: in vivo
Conditions: primary screening, pot culture, 150 g/ha, sprayed at 3-leaf stage, result 15 days later
metric: herbicidal activity inhibition ratio (%), Setaria viridis

1. Cn1c(=O)n(-c2cccc(C(F)(F)F)c2)c(=O)c2cc(C(=O)C3=C(O)CC(C)(C)CC3=O)ccc21 | 40
2. Cn1c(=O)n(-c2ccc(Br)cc2)c(=O)c2cc(C(=O)C3=C(O)CCCC3=O)ccc21 | 35
3. Cn1c(=O)n(-c2ccccc2F)c(=O)c2cc(C(=O)C3=C(O)CC(C)(C)CC3=O)ccc21 | 100
4. Cn1c(=O)n(-c2cccc(Cl)c2)c(=O)c2cc(C(=O)C3=C(O)CC(C)(C)CC3=O)ccc21 | 90

Source listed as patent US9771334B2.
